Reported relative viability values for the following compounds.
Tested on: LK-2
assay-name: relative viability (nuclei count vs DMSO), 5 days (fraction); higher = more cells survive
reported-conditions: first compound 0.02 µM

compound	value-kind	assay-result
CC(=O)O[C@@]12CO[C@@H]1C[C@H](O)[C@@]1(C)C(=O)[C@H](O)C3=C(C)[C@@H](OC(=O)[C@H](O)[C@@H](NC(=O)OC(C)(C)C)c4ccccc4)C[C@@](O)([C@@H](OC(=O)c4ccccc4)[C@H]21)C3(C)C [Docetaxel] + Nc1nc2[nH]cc(CCc3ccc(C(=O)N[C@@H](CCC(=O)O)C(=O)O)cc3)c2c(=O)[nH]1 [Pemetrexed] (partner 0.2 µM)	relative viability	0.131
CC(=O)O[C@@]12CO[C@@H]1C[C@H](O)[C@@]1(C)C(=O)[C@H](O)C3=C(C)[C@@H](OC(=O)[C@H](O)[C@@H](NC(=O)OC(C)(C)C)c4ccccc4)C[C@@](O)([C@@H](OC(=O)c4ccccc4)[C@H]21)C3(C)C [Docetaxel] + CCNC(=O)c1noc(-c2cc(C(C)C)c(O)cc2O)c1-c1ccc(CN2CCOCC2)cc1 [Luminespib] (partner 0.01 µM)	relative viability	0.168

Then this compound:
Measured relative viability of CC(=O)O[C@@]12CO[C@@H]1C[C@H](O)[C@@]1(C)C(=O)[C@H](O)C3=C(C)[C@@H](OC(=O)[C@H](O)[C@@H](NC(=O)OC(C)(C)C)c4ccccc4)C[C@@](O)([C@@H](OC(=O)c4ccccc4)[C@H]21)C3(C)C [Docetaxel] + Cc1nc(Nc2ncc(C(=O)Nc3c(C)cccc3Cl)s2)cc(N2CCN(CCO)CC2)n1 [Dasatinib] (partner 0.075 µM) : 0.113

----------
Test system: EPLC-272H
assay-name: relative viability (nuclei count vs DMSO), 5 days (fraction); higher = more cells survive
reported-conditions: first compound 0.005 µM
value-kind: relative viability
Hey, just send me the number, nothing else.

compound	target-or-system	relative viability
COc1cc2nccc(Oc3ccc(NC(=O)Nc4cc(C)on4)c(Cl)c3)c2cc1OC [Tivozanib] + COc1cc2c(Oc3ccc(NC(=O)C4(C(=O)Nc5ccc(F)cc5)CC4)cc3F)ccnc2cc1OCCCN1CCOCC1 [Foretinib] (partner 0.25 µM)	EPLC-272H	0.61

Measured relative viability of COc1cc2nccc(Oc3ccc(NC(=O)Nc4cc(C)on4)c(Cl)c3)c2cc1OC [Tivozanib] + CCNC(=O)c1noc(-c2cc(C(C)C)c(O)cc2O)c1-c1ccc(CN2CCOCC2)cc1 [Luminespib] (partner 0.01 µM) : 0.24

Measured relative viability of COc1cc2nccc(Oc3ccc(NC(=O)Nc4cc(C)on4)c(Cl)c3)c2cc1OC [Tivozanib] + Cc1nc(NC(=O)N2CCC[C@H]2C(N)=O)sc1-c1ccnc(C(C)(C)C(F)(F)F)c1 [Alpelisib] (partner 2 µM) : 0.964

----------
System: SK-MES-1
assay-name: relative viability (nuclei count vs DMSO), 5 days (fraction); higher = more cells survive
reported-conditions: first compound 0.000632 µM
Reported relative viability values for the following compounds.
Hey, just send me the number, nothing else.

compound	relative viability
CC(=O)O[C@@]12CO[C@@H]1C[C@H](O)[C@@]1(C)C(=O)[C@H](O)C3=C(C)[C@@H](OC(=O)[C@H](O)[C@@H](NC(=O)OC(C)(C)C)c4ccccc4)C[C@@](O)([C@@H](OC(=O)c4ccccc4)[C@H]21)C3(C)C [Docetaxel] + CC1(C)CCC(c2ccc(Cl)cc2)=C(CN2CCN(c3ccc(C(=O)NS(=O)(=O)c4ccc(N[C@H](CCN5CCOCC5)CSc5ccccc5)c(S(=O)(=O)C(F)(F)F)c4)cc3)CC2)C1 [Navitoclax] (partner 0.5 µM)	0.692
CC(=O)O[C@@]12CO[C@@H]1C[C@H](O)[C@@]1(C)C(=O)[C@H](O)C3=C(C)[C@@H](OC(=O)[C@H](O)[C@@H](NC(=O)OC(C)(C)C)c4ccccc4)C[C@@](O)([C@@H](OC(=O)c4ccccc4)[C@H]21)C3(C)C [Docetaxel] + CC(=O)Nc1cccc(-n2c(=O)n(C3CC3)c(=O)c3c(Nc4ccc(I)cc4F)n(C)c(=O)c(C)c32)c1 [Trametinib] (partner 0.02 µM)	0.758

Then this compound:
Measured relative viability of CC(=O)O[C@@]12CO[C@@H]1C[C@H](O)[C@@]1(C)C(=O)[C@H](O)C3=C(C)[C@@H](OC(=O)[C@H](O)[C@@H](NC(=O)OC(C)(C)C)c4ccccc4)C[C@@](O)([C@@H](OC(=O)c4ccccc4)[C@H]21)C3(C)C [Docetaxel] + Cc1nc(NC(=O)N2CCC[C@H]2C(N)=O)sc1-c1ccnc(C(C)(C)C(F)(F)F)c1 [Alpelisib] (partner 2 µM) : 0.892

----------
System: NCI-H1755
assay-name: relative viability (nuclei count vs DMSO), 5 days (fraction); higher = more cells survive
reported-conditions: first compound 0.1265 µM
hey, just use satisfied if measured relative viability is less than 0.7, otherwise not satisfied

Some entries whose results are on file:
compound	answer-label
Cc1sc2c(c1C)C(c1ccc(Cl)cc1)=N[C@@H](CC(=O)OC(C)(C)C)c1nnc(C)n1-2 [JQ1] + C[C@@H](Oc1cc(-c2cnn(C3CCNCC3)c2)cnc1N)c1c(Cl)ccc(F)c1Cl [Crizotinib] (partner 1 µM)	not satisfied
Cc1sc2c(c1C)C(c1ccc(Cl)cc1)=N[C@@H](CC(=O)OC(C)(C)C)c1nnc(C)n1-2 [JQ1] + CC(=O)c1c(C)c2cnc(Nc3ccc(N4CCNCC4)cn3)nc2n(C2CCCC2)c1=O [Palbociclib] (partner 0.5 µM)	satisfied
Cc1sc2c(c1C)C(c1ccc(Cl)cc1)=N[C@@H](CC(=O)OC(C)(C)C)c1nnc(C)n1-2 [JQ1] + Cc1nc(NC(=O)N2CCC[C@H]2C(N)=O)sc1-c1ccnc(C(C)(C)C(F)(F)F)c1 [Alpelisib] (partner 2 µM)	not satisfied
Cc1sc2c(c1C)C(c1ccc(Cl)cc1)=N[C@@H](CC(=O)OC(C)(C)C)c1nnc(C)n1-2 [JQ1] + Cc1cc(Nc2cc(N3CCN(C)CC3)nc(Sc3ccc(NC(=O)C4CC4)cc3)n2)n[nH]1 [Tozasertib] (partner 0.1 µM)	satisfied
Cc1sc2c(c1C)C(c1ccc(Cl)cc1)=N[C@@H](CC(=O)OC(C)(C)C)c1nnc(C)n1-2 [JQ1] + CC(C)C[C@H](NC(=O)[C@H](Cc1ccccc1)NC(=O)c1cnccn1)B(O)O [Bortezomib] (partner 0.002 µM)	not satisfied

input: State whether 0.7 exceeds relative viability recorded for Cc1sc2c(c1C)C(c1ccc(Cl)cc1)=N[C@@H](CC(=O)OC(C)(C)C)c1nnc(C)n1-2 [JQ1] + Nc1ncn([C@H]2C[C@H](O)[C@@H](CO)O2)c(=O)n1 [Decitabine] (partner 2 µM) .
output: not satisfied

----------
Test system: NCI-H1437
assay-name: relative viability (nuclei count vs DMSO), 5 days (fraction); higher = more cells survive
reported-conditions: first compound 0.000632 µM
value-kind: relative viability
Hey, just send me the number, nothing else.

Worked set:
compound	relative viability
CC(=O)O[C@@]12CO[C@@H]1C[C@H](O)[C@@]1(C)C(=O)[C@H](O)C3=C(C)[C@@H](OC(=O)[C@H](O)[C@@H](NC(=O)OC(C)(C)C)c4ccccc4)C[C@@](O)([C@@H](OC(=O)c4ccccc4)[C@H]21)C3(C)C [Docetaxel] + Cc1cc(Nc2cc(N3CCN(C)CC3)nc(Sc3ccc(NC(=O)C4CC4)cc3)n2)n[nH]1 [Tozasertib] (partner 0.1 µM)	0.374
CC(=O)O[C@@]12CO[C@@H]1C[C@H](O)[C@@]1(C)C(=O)[C@H](O)C3=C(C)[C@@H](OC(=O)[C@H](O)[C@@H](NC(=O)OC(C)(C)C)c4ccccc4)C[C@@](O)([C@@H](OC(=O)c4ccccc4)[C@H]21)C3(C)C [Docetaxel] + COc1cccc2cc(-c3nc([C@H]4CC[C@H](C(=O)O)CC4)n4ncnc(N)c34)[nH]c12 [OSI-027] (partner 0.5 µM)	0.861

Measured relative viability of CC(=O)O[C@@]12CO[C@@H]1C[C@H](O)[C@@]1(C)C(=O)[C@H](O)C3=C(C)[C@@H](OC(=O)[C@H](O)[C@@H](NC(=O)OC(C)(C)C)c4ccccc4)C[C@@](O)([C@@H](OC(=O)c4ccccc4)[C@H]21)C3(C)C [Docetaxel] + CS(=O)(=O)N1CCN(Cc2cc3nc(-c4cccc5[nH]ncc45)nc(N4CCOCC4)c3s2)CC1 [Pictilisib] (partner 1 µM) : 0.366

Measured relative viability of CC(=O)O[C@@]12CO[C@@H]1C[C@H](O)[C@@]1(C)C(=O)[C@H](O)C3=C(C)[C@@H](OC(=O)[C@H](O)[C@@H](NC(=O)OC(C)(C)C)c4ccccc4)C[C@@](O)([C@@H](OC(=O)c4ccccc4)[C@H]21)C3(C)C [Docetaxel] + CC1(C)CCC(c2ccc(Cl)cc2)=C(CN2CCN(c3ccc(C(=O)NS(=O)(=O)c4ccc(N[C@H](CCN5CCOCC5)CSc5ccccc5)c(S(=O)(=O)C(F)(F)F)c4)cc3)CC2)C1 [Navitoclax] (partner 0.5 µM) : 0.644

Measured relative viability of CC(=O)O[C@@]12CO[C@@H]1C[C@H](O)[C@@]1(C)C(=O)[C@H](O)C3=C(C)[C@@H](OC(=O)[C@H](O)[C@@H](NC(=O)OC(C)(C)C)c4ccccc4)C[C@@](O)([C@@H](OC(=O)c4ccccc4)[C@H]21)C3(C)C [Docetaxel] + C[C@]1(O)C[C@@H](c2nc(-c3ccc4ccc(-c5ccccc5)nc4c3)c3c(N)nccn32)C1 [Linsitinib] (partner 1 µM) : 0.805

Measured relative viability of CC(=O)O[C@@]12CO[C@@H]1C[C@H](O)[C@@]1(C)C(=O)[C@H](O)C3=C(C)[C@@H](OC(=O)[C@H](O)[C@@H](NC(=O)OC(C)(C)C)c4ccccc4)C[C@@](O)([C@@H](OC(=O)c4ccccc4)[C@H]21)C3(C)C [Docetaxel] + CS(=O)(=O)CCNCc1ccc(-c2ccc3ncnc(Nc4ccc(OCc5cccc(F)c5)c(Cl)c4)c3c2)o1 [Lapatinib] (partner 2 µM) : 0.508

Measured relative viability of CC(=O)O[C@@]12CO[C@@H]1C[C@H](O)[C@@]1(C)C(=O)[C@H](O)C3=C(C)[C@@H](OC(=O)[C@H](O)[C@@H](NC(=O)OC(C)(C)C)c4ccccc4)C[C@@](O)([C@@H](OC(=O)c4ccccc4)[C@H]21)C3(C)C [Docetaxel] + Nc1ncn([C@H]2C[C@H](O)[C@@H](CO)O2)c(=O)n1 [Decitabine] (partner 2 µM) : 0.629
